Data credit: a melting point compilation (Tetko et al.; mined from patent text by program, amines drawn as free bases though some values may be those of a salt)

The following compounds are shown together with reported melting point values.

| compound | melting point |
| --- | --- |
| COC(=O)c1ccc2c(c1)NC(=O)C(C)O2 (stereo not given) | 156 to 159 °C |
| CCC1(CC)C(=O)N(CC(O)Cc2cc(C(C)C)c(O)c(C(C)C)c2)C(=O)N(CC(O)Cc2cc(C(C)C)c(O)c(C(C)C)c2)C1=O (stereo not given) | 126 to 127 °C |

[Q] Name the reported melting point value associated with the compound Nc1ccc(OCc2ccc(F)cc2)cc1F
[A] 42 to 43 °C

[Q] Name the reported melting point value associated with the compound O=[N+]([O-])c1ccc(CO)cc1OC1CCCC1
[A] 54 °C

[Q] Name the reported melting point value associated with the compound Cc1nc(-c2ccc(Br)cc2)n(-c2ccc(S(C)(=O)=O)cn2)n1
[A] 211 to 212 °C
